These data points were gathered from patent US8912169B2.

- Experimental Target: p99 AmpC (Enterobacter cloacae, UniProt P05364)
- Construct: made in house; host or cells: E. coli BL21(DE3)
- Sequence (P05364 21-381): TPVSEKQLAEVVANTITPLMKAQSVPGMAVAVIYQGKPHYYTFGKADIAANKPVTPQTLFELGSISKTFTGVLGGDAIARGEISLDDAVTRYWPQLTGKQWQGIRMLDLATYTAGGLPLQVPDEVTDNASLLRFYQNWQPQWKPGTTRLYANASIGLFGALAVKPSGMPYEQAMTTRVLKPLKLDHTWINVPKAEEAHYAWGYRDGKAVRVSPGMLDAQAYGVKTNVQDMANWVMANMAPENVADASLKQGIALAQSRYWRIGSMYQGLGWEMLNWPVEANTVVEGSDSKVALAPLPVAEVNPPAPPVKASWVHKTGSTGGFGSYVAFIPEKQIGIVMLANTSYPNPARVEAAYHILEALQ
- Assay Name: β-lactamase enzyme inhibition, p99 AmpC
- Format: biochemical
pIC50: −log10 of the molar value.
I'd appreciate it if you could supply pIC50 values for the items below.

[in] Look up pIC50: O=C(C[C@H]1CC[C@H](NCCNCC2CC2)CC1)N[C@H]1Cc2cccc(C(=O)O)c2OB1O [Example 74]
[out] > 7.00

[in] Entry CN(CCN)[C@H]1CC[C@H](CC(=O)N[C@H]2Cc3cccc(C(=O)O)c3OB2O)CC1 [Example 63] has what pIC50?
[out] > 7.00

[in] Requested field: pIC50. Item: NCCNC1CC(CC(=O)N[C@H]2Cc3cccc(C(=O)O)c3OB2O)C1 (some centres unmarked) [Example 55]
[out] > 7.00

[in] Which pIC50 value is on record for O=C(C[C@H]1CC[C@H](NCc2ccccn2)CC1)N[C@H]1Cc2cccc(C(=O)O)c2OB1O [Example 32] ?
[out] > 7.00

[in] Sample N[C@H]1CC[C@H](CC(=O)N[C@H]2Cc3cccc(C(=O)O)c3OB2O)CC1 [Example 6] — what was its pIC50?
[out] > 7.00

[in] Any idea what its pIC50 is? The compound is CN1CCN([C@H]2CC[C@H](CC(=O)N[C@H]3Cc4cccc(C(=O)O)c4OB3O)CC2)C1=N [Example 52]
[out] > 7.00

[in] Would you mind telling me what pIC50 value was observed for O=C(C[C@H]1CC[C@H](NCCNCCO)CC1)N[C@H]1Cc2cccc(C(=O)O)c2OB1O [Example 61] ?
[out] > 7.00

[in] Which measured pIC50 value corresponds to O=C(C[C@H]1CC[C@H](NCCNC2CCCC2)CC1)N[C@H]1Cc2cccc(C(=O)O)c2OB1O [Example 73] ?
[out] > 7.00
